Recorded values, source ChEMBL document CHEMBL4627261.

Tested on: WEHI265.1
measurement.notes: Antiinflammatory activity in LPS-induced mouse WEHI265.1 cells assessed as reduction in IL-6 level by ELISA
Type: functional, cell-based
Would you mind telling me the reported pIC50 of each entry?
One number for each entry, as −log10 of the molar value.

O=c1c2c(n3c(c1-c1ccccc1Cl)NCC3)CCC2 yielded pIC50 of 6.70

Looking up O=c1c2c(n3c(c1-c1ccccc1[N+](=O)[O-])NCC3)CCC2 , I found its pIC50 recorded as 6.70

Input O=c1c2c(n3c(c1-c1ccccc1)SCC3)CCC2 . Output pIC50: 6.70

Kindly note the recorded pIC50 for Nc1ccccc1-c1c2n(c3c(c1=O)CCC3)CCN2 , which is 6.70

Given item CN1CCn2c3c(c(=O)c(-c4ccccc4)c21)CCC3 , the value recorded as its pIC50 is 6.70

Sure, the documented pIC50 for O=c1c2c(n3c(c1-c1ccccc1)NCC3)CCC2 is 6.70

pIC50 recorded for this compound, CC(=O)Nc1ccccc1-c1c2n(c3c(c1=O)CCC3)CCN2 , is 6.70

The recorded pIC50 for COc1ccccc1-c1c2n(c3c(c1=O)CCC3)CCN2 is 6.70

As a next step, examine the compound that follows.
pIC50 in this record for O=c1c2c(n3c(c1-c1ccccc1)OCC3)CCC2 : 6.70
